test system: OVCAR-4; assay: NCI tumour cell line growth inhibition, 48 h
Activity calls are given as the source filed them. Rule as the data show it: active = GI50 up to about 1.1 µM and inactive = higher.
Use one of these outcomes when replying: true (1) for active, false (0) for inactive

Illustrative cases are given below, each with its answer.
# compound, label
data = [
    ("NNC(=O)N/N=C1\\C(=O)N(c2ccc(Cl)c(Cl)c2)C(=O)C(=O)C1c1nc2ccccc2s1 (configuration not stated)", "false (0)"),
    ("N=C(N)NCCCCCCC(=O)NC(O)C(=O)NCCCCNCCCN (configuration not stated)", "false (0)"),
    ("CCOC(=O)C1=C(N2CCCC2)C(=O)C(C(=O)OCC)C1 (configuration not stated)", "false (0)"),
]

Request: How was O=C(O)C1=Cc2cccc3cccc(c23)C1=O classified in this test?
Response: false (0)

Request: How was Cc1ccc(S(=O)(=O)N2c3ccccc3[C@H]3CCc4c([nH]c5ccccc45)[C@H]32)cc1 classified in this test?
Response: true (1)

Request: How was OCCC/N=C1N=C(Cl)/C(=C\c2ccccc2)N\1 classified in this test?
Response: false (0)

Request: How was CC12CCC([C@H](N3CCOCC3)/C1=N\OCCN1CCCC1)C2(C)C (some centres not stated) classified in this test?
Response: false (0)

Request: How was CC(Cc1ccc(O)cc1)NCC(O)c1ccc(O)c(O)c1 (configuration not stated) classified in this test?
Response: false (0)

Request: How was C=CC/N=C1\NC(=O)C(CC(=O)Nc2ccc(C)cc2)S1 (configuration not stated) classified in this test?
Response: false (0)

Request: How was COc1ccc(C(=CCC(C)C2CCC3[C@@H]4C(OC(C)=O)CC5CC(OC(C)=O)CC[C@]5(C)C4CC(OC(C)=O)[C@]23C)c2ccc(OC)cc2)cc1 (some centres not stated) classified in this test?
Response: false (0)

Request: How was O=c1ssc(Cl)c1Cl classified in this test?
Response: false (0)

###

tested on: Hs-578T; assay: NCI tumour cell line growth inhibition, 48 h
Calls of active or inactive are those of the source. No stated cut-off is given here; in the data, active = GI50 up to about 1.1 µM and inactive = higher.
Entries and their GI50 values follow.

# molecule, result
data = [
    ("O=C1c2ccccc2-n2c1nc1ccccc1c2=O", "17.1 µM (inactive)"),
    ("Oc1ccc(Cl)cc1Sc1cc(Cl)ccc1O", "4.98 µM (inactive)"),
    ("O=[N+]([O-])c1ccccc1S(=O)(=O)c1cc(O)cc2c1NCCC2", "27.4 µM (inactive)"),
]

Request: Given the molecule CC[C@]12C=CCN3CC[C@@]4(c5cc(Br)c(OC)c([N+](=O)[O-])c5N(C)[C@H]4[C@@](O)(C(=O)OC)[C@@H]1OC(C)=O)[C@@H]32 , what is its reported GI50?
Response: 36.1 µM (inactive)

###

tested on: SK-OV-3; experiment: NCI tumour cell line growth inhibition, 48 h
The source made the active and inactive calls. Rule as the data show it: active = GI50 up to about 1.1 µM and inactive = higher.
Use one of these outcomes when replying: 1 for active, -1 for inactive

Request: How was Nc1ncnc2c1ncn2[C@H]1CC[C@@H](NO)C1 classified in this test?
Response: -1

Request: How was Cc1nc2c(sc3nc4ccccc4n32)c(=O)[nH]1 classified in this test?
Response: -1

Request: How was Cc1csc(/N=C(/NCCN2CCOCC2)Nc2nc(C)cs2)n1 classified in this test?
Response: -1

Request: How was Fc1cc2nc3n(c2cc1F)C(c1c(Cl)cccc1Cl)SC3 (configuration not stated) classified in this test?
Response: -1

Request: How was C/C(CC(=O)Nc1ccc(C)cc1C)=N/N=C(N)N classified in this test?
Response: -1

Request: How was Cc1ccc(Nc2c(C#N)[n+]([O-])c3cc(Cl)ccc3[n+]2[O-])cc1 classified in this test?
Response: -1

Request: How was CN1NC2(CCCCC2)ON=C1c1ccccc1 classified in this test?
Response: -1

Request: How was CC(=O)NCCC1CN(C(=O)/C=C/I)c2ccccc21 (configuration not stated) classified in this test?
Response: -1

Request: How was Cc1ccc(Cl)c2c(=O)cc(-c3ccccc3)[nH]c12 classified in this test?
Response: -1

Request: How was CON(C)C(=O)C1CCCO1 (configuration not stated) classified in this test?
Response: -1

Request: How was CC(=O)NC1C(OC(C)C(=O)NC(C)C(=O)NC(CCC(=O)NCCCCCNc2ccc([N+](=O)[O-])c3[nH]c4ccccc4c(=O)c23)C(N)=O)C(O)C(CO)OC1(C)OCc1ccccc1 (configuration not stated) classified in this test?
Response: -1

Request: How was CSc1nc(Cl)c2c(n1)Sc1nc3ccccc3n1N=C2 classified in this test?
Response: -1

Request: How was COC(=O)c1cc2cc(OC)c(OC)cc2cc(C(=O)OC)c1=O classified in this test?
Response: -1

Request: How was O=C1c2cc3c(cc2CC12Cc1ccc4c(c1C2=O)CCCC4)CCCC3 (configuration not stated) classified in this test?
Response: -1

Request: How was COc1cccc(CSCC(=O)O)c1 classified in this test?
Response: -1

Request: How was COc1cc(/C=N/N=C(\N)NO)ccc1O classified in this test?
Response: -1

Request: How was COc1cc2oc(-c3ccccc3)cc(=O)c2c(O)c1C classified in this test?
Response: -1

Request: How was O=C1CSC(c2c[nH]c3ccccc23)N1c1ccc(Cl)cc1Cl (configuration not stated) classified in this test?
Response: -1

Request: How was COC(=O)CCCc1ccc2c(c1)CC1(C2)Cc2cc3c(cc2C1)CCCC3 classified in this test?
Response: -1

Request: How was COc1ccc(/C=C2\CCCc3ccccc3C2=O)cc1 classified in this test?
Response: 1

Request: How was O=C1C=C(c2[nH]c3ccccc3c2C2=CC(=O)c3ccccc3C2=O)C(=O)c2ccccc21 classified in this test?
Response: -1

Request: How was O=C1C(Cl)=C(NCCOCCO)C(=O)c2c(O)ccc(O)c21 classified in this test?
Response: -1
